Provide the reported PBM binding z-score of each item.
- Tested on: PPARg:RXRa (NR concentration 180 nM, RXRa partner concentration 90 nM)
- protocol_description: PBM binding z-score (relative to random genomic background probes); higher = stronger binding; sequences stand for … in GC…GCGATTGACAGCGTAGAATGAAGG
Write the value as a bare number.

Task: Could you share which PBM binding z-score value was measured for TCTTGTAGATCAATAGAGGTTAAGAAAGTGCGCT ?
Result: -0.124

Task: Another sequence to check: TCATATAGGTAAATGCTAGGTGGAAGTCCGATCT
Result: 0.493

Task: Another sequence to check: ATATGTAGGTTATCGGGTCATTTAGTTTGCGCAT
Result: 7.59

Task: Another sequence to check: ACTAGCAGGCCAAGTTTTGGTCACTCAAACAAAG
Result: -0.156

Task: Another sequence to check: ACAGACAGGTGAGTGAAGGTAAATCAGCTGGACG
Result: 0.739

Task: Another sequence to check: TCTCGGAGGACACGAAAGGTCAGAGGTCGACATC
Result: 3.27

Task: Another sequence to check: CCTATTAGTTGACCATAAGGGCAACCGTAGCTCG
Result: 0.376

Task: Another sequence to check: AGTCAAAGTTCAGGACGAGGTAAGGTAAAGCACG
Result: 4.39

Task: Another sequence to check: CGAACGAGGGAATGAGTTGATAGCAAATGCCGAT
Result: 0.578

Task: Another sequence to check: GCAGACTGGTGAAACGCAGGTAACTCAGGGTGGC
Result: -0.00355

Task: Another sequence to check: CCGAGCAGGTTATGGGGCATTCAGGCAACGGTGA
Result: 0.617

Task: Another sequence to check: AATACAGGATCATCGTAGGCCAGAGTACGCACAG
Result: 0.976

Task: Another sequence to check: TGTCAAAGTTGAAAGGTAACGTAAGTATCCACAC
Result: 5.4

Task: Another sequence to check: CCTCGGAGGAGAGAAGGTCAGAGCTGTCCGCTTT
Result: -0.501

Task: Another sequence to check: CGTCCAAGGTCAGAGAGGTCCGTGAATGCCGAGT
Result: 1.83

Task: Another sequence to check: GCGACTGGGGCATCAGCAGGTTACCAGAACTTAA
Result: 0.791

Task: Another sequence to check: TAGCCTAGGGCATGGGCCAGTATACCACGCGAAC
Result: 0.658

Task: Another sequence to check: GGAACGAGGGCAAGTTGAGAGCAGAGTTTGATGG
Result: 0.945

Task: Another sequence to check: GCTCAGAGGACAAGGTCAGAGCTTTGTCCGTAGA
Result: 0.282

Task: Another sequence to check: CGTCCAAGGTCAGCAGGTAAGTGAAAGCGACGTG
Result: 3

Task: Another sequence to check: CCTTACGGGTCACGAGGATATAGCACGACGAGCG
Result: 6.65

Task: Another sequence to check: TCTCGGAGGGCACGAAAGGTCAGAGCTCGACATC
Result: 2.69

Task: Another sequence to check: TCTTGTAGATCTATAGAGGTTAAGAAAGTGCGCT
Result: 0.274

Task: Another sequence to check: CGAACTAGGTCAGAACAGCACAGTGAAGGATGAT
Result: 5.34

Task: Another sequence to check: CCAGACAGGTGAAAGGTAACACAGTCTGGTACGC
Result: 5.85

Task: Another sequence to check: TCTGCTAGGTCAGTGGGTCAGCTAACGAGCTGCC
Result: 5.03

Task: Another sequence to check: CCTACTGGGCCCCGAAAGGTCATTGATTCAGTGA
Result: 1.14

Task: Another sequence to check: CGTCAAAGTTCAACTTAGGTAACGTAAAGCACGC
Result: 5.28

Task: Another sequence to check: TCGAGTAGGTTAGTCGGGGCATTTAGCCAACATA
Result: -0.0847

Task: Another sequence to check: CAAACTAGGTCACGAAAAGTCAAAGTCGAATGAC
Result: 9.43

Task: Another sequence to check: TCGTGTAGGTTAGTCGGGGCATTCAGCCAACATA
Result: -0.0243

Task: Another sequence to check: GGAACGAGGGCAAGTTGATAGCCGAGTTTGATGG
Result: 0.924

Task: Another sequence to check: TCACATAGGTAAAGGTGAAAGTCGAACGATATGA
Result: 2.67

Task: Another sequence to check: TCGAGTAGGTTAGTCGGGACATTCAGCCAACATA
Result: 0.156

Task: Another sequence to check: ATCTGTAGGTAAAGATAGTTCAGTGAATGCAAAT
Result: 0.782

Task: Another sequence to check: TCATATAGATAATACAGGTGAAAGTCGGCATCTA
Result: 1.36

Task: Another sequence to check: CTGCCAAGGTGAACAAGGTCGTTGATTACTATTC
Result: 0.839

Task: Another sequence to check: GCAAATAGGTAATACAAGGTGAAAGTCCGATTGT
Result: 1.02

Task: Another sequence to check: TATAGTTGGTCACGGAGGTCACACACGACGGGTA
Result: 4.49

Task: Another sequence to check: GCGACTGCGGCAAAGCAGGTTACCATAAGGTTGG
Result: 0.3

Task: Another sequence to check: CAAACTAGATCACGAAAGGTCAAAGTCGAATGAC
Result: 4.16

Task: Another sequence to check: CCTACTAGGTCAATGGTCAGCTAAAGCAGCTCGC
Result: 8.83

---

- Tested on: RXRa DBDmut IVT, anti-RXR (DBD mutation: RXRa K156A/R161A, NR concentration 90 nM)
- protocol_description: PBM binding z-score (relative to random genomic background probes); higher = stronger binding; sequences stand for … in GC…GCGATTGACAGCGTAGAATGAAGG
reported_metric: PBM binding z-score
Write the value as a bare number.

Task: Could you share which PBM binding z-score value was measured for ATCTCAAGGTAAAGTTCAGTGAAAGATCGATAGA ?
Result: 1.69

Task: Another sequence to check: CCGACTGGGGCAAAGGTTTCCATACTCAGTACGA
Result: 0.213

Task: Another sequence to check: TCATATAGGTAATACAGGTGGAAGTCGGCATCTA
Result: 1.5

Task: Another sequence to check: TCAAGTAGGTTAGGGGCATTCAGAATGGCGTCGA
Result: 1.29

Task: Another sequence to check: TCTCGTAGATCAACAGGAGGTTAAGAAAGATCGA
Result: 0.538

Task: Another sequence to check: ATATGTAGGTTAGCGGGTCATTCAGTTTGCGCAT
Result: 1.42

Task: Another sequence to check: ACTATTAGTAGAGACGAGGGCAACCGATAGGTTG
Result: 0.392

Task: Another sequence to check: ACTATTAGTTGACTTTGGGCAACCGATACGACGC
Result: 0.79

Task: Another sequence to check: CCTAGTTGGTCAAGGCCACACACGCTATAGGTAC
Result: 0.685

Task: Another sequence to check: CCGAGTAGGTTATGGGGCACTCAGGCAACGGTGA
Result: -0.264

Task: Another sequence to check: TTACCAAGGTGCAAGGTCGTTGATGCACGCCTTG
Result: 1.33

Task: Another sequence to check: ATCGAGAGGTCGTGAGGTGAGTATACAGAAAGGC
Result: 1.43

Task: Another sequence to check: CCGACTGGGGCAAAGGTTACCATCCTCAGTACGA
Result: -0.109

Task: Another sequence to check: CCTGCTAGGTCAGTGGTCAGCTAAAGCAGCTCGC
Result: 0.821

---

- System: PXR homodimer (NR concentration 270 nM)
- protocol_description: PBM binding z-score (relative to random genomic background probes); higher = stronger binding; sequences stand for … in GC…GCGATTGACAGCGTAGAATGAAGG
Provide the reported PBM binding z-score of each item.

Task: Could you share which PBM binding z-score value was measured for AATACAGTGTCACTAGGCCAGAGTAGGTACGAAT ?
Result: -0.144

Task: Another sequence to check: TCTAGCTGGCCAGAGGGTCACTCAAGAGGTACGG
Result: -0.401

Task: Another sequence to check: ATATGTAGGTTAGCTGGTGTCATTCAGACTAGGC
Result: 0.392

Task: Another sequence to check: CGTCCAAGGTCATAGGAGGTCAGAGAAGACAGAT
Result: 4.38

Task: Another sequence to check: GCTAGTTGGTCAGTATAAGGTCACACACCGGTCG
Result: 1.61

Task: Another sequence to check: TCTGCTAGTTCAGTTGGTCAGCTAACGAGCTGCC
Result: -0.641

Task: Another sequence to check: TCTATTAGTTGAAGCGCAACCGACGAGTCCGTTT
Result: 0.219

Task: Another sequence to check: TAGCATAGGTCATTCAGGGGCCAGTATAGAAAGC
Result: 0.0442

Task: Another sequence to check: TGACCAAGGTGAAAGGTCGTTGATGCACGCCTTG
Result: -0.00693

Task: Another sequence to check: ACTGGCAGGCCAAGGGTCACTCAAGATTAGTCCG
Result: -0.0528

Task: Another sequence to check: TAGCCTAGGTCATGGGCCAATATACCACGCGAAC
Result: -0.28

Task: Another sequence to check: TGTCACAGTTCAAAGGTAACGTAAGTATCCACAC
Result: 0.969

Task: Another sequence to check: ACTAGTTGGTCAACTGAGGTCACACACAATTCGG
Result: 1.2

Task: Another sequence to check: ACTATTAGATGACTTAGGGCAACCGATACGACGC
Result: 0.554
